The measurements presented in this section are drawn from patent US8445501B2.

Target: human PDE5 (Homo sapiens, UniProt O76074)
Experiment: Inhibition of the type 5 phosphodiesterase (PDE5) activity, modified SPA test with platelet lysate
Settings: PDE5 from human platelet lysate, 0.5 μM cGMP
Experimental: Method for Measuring Inhibition of the Type 5 Phosphodiesterase (PDE5) Activity: As a source for human PDE5, platelets are used. For that purpose, 150 ml fresh blood from human donors anticoagulated with citrate [final concentration 0.3% (w/v)] is centrifuged at 200 g for 10 min to obtain the so-called platelet-rich-plasma (PRP) as a supernatant. 1/10 volume of ACD solution (85 mM Na3-citrate, 111 mM D-glucose, 71 mM citric acid, pH 4.4) is added to 9/10 volume of PRP. […]
pIC50: −log10 of the molar value.
The label depends only on pIC50: label 1 if it is at least 9, label 0 if it is smaller.

Previously resolved entries follow.
O=C(CO)N[C@H]1CC[C@H](NC(=O)c2c[nH]c3c(-c4ccccc4OCC4CC4)ncnc23)CC1; label 0
COc1cc(-c2ncnc3c(C(=O)N[C@@H]4CCCN(C(C)=O)C4)c[nH]c23)c(OCC2CC2)cc1F; label 1
COCC(=O)N1CCC[C@@H](NC(=O)c2c[nH]c3c(-c4cc(OC)c(F)cc4OCC4CC4)ncnc23)C1; label 1
COCC(=O)N1CCC(NC(=O)c2c[nH]c3c(-c4cc(F)ccc4OCC4CC4)ncnc23)CC1; label 0
C[C@H](O)C(=O)N1CCCC(CNC(=O)c2c[nH]c3c(-c4c(OCC5CC5)ccc5c4OCO5)ncnc23)C1 (stereo partly drawn); label 1
Cc1ccc(OCC2CC2)c(-c2ncnc3c(C(=O)N[C@H]4CC[C@H](NC(=O)CO)CC4)c[nH]c23)c1; label 0
COCCOc1cc(OC)ccc1-c1ncnc2c(C(=O)N[C@H]3CC[C@H](NC(=O)C4(O)CC4)CC3)c[nH]c12; label 0

Would you say COc1ccc(-c2ncnc3c(C(=O)N[C@H]4CC[C@H](NC(C)=O)CC4)c[nH]c23)c(OCC2CC2)c1 shows pIC50 at minimum 9?
label 1

* * *

Target: human PDE5 (Homo sapiens)
Assay: Inhibition of the type 5 phosphodiesterase (PDE5) activity, modified SPA test with platelet lysate
Settings: PDE5 from human platelet lysate, 0.5 μM cGMP
MEASURED PROPERTY: pIC50
One number for each entry, as −log10 of the molar value.

Solved entries (count: 2):
Cc1ccc(OCC2CC2)c(-c2ncnc3c(C(=O)N[C@H]4CC[C@H](NC(=O)C5(O)CC5)CC4)c[nH]c23)c1; 8.94
COCCOc1cc(OC)ccc1-c1ncnc2c(C(=O)N[C@H]3CC[C@@H](NC(C)=O)CC3)c[nH]c12; 7.84

Turning now to a further molecule:
Log: human PDE5 (Homo sapiens), molecule CCOC(=O)N[C@H]1CC[C@H](NC(=O)c2c[nH]c3c(-c4cc(OC)ccc4OCC4CC4)ncnc23)CC1 , pIC50 = 9.20

* * *

Target: human PDE5 (Homo sapiens)
Assay: Inhibition of the type 5 phosphodiesterase (PDE5) activity, modified SPA test with platelet lysate
Settings: PDE5 from human platelet lysate, 0.5 μM cGMP
MEASURED PROPERTY: pIC50
Numbers only, as −log10 of the molar value.

CCC(=O)N[C@H]1CC[C@H](NC(=O)c2c[nH]c3c(-c4cc(F)ccc4OCC4CC4)ncnc23)CC1; 8.78

Provide pIC50 for all items below, preserving their order.
1. COCC(=O)N1CCOC(CNC(=O)c2c[nH]c3c(-c4c(OCC5CC5)ccc5c4OCO5)ncnc23)C1 (stereo not shown)
2. COCC(=O)N1CCC(NC(=O)c2c[nH]c3c(-c4c(OCC5CCC5)ccc5c4OCO5)ncnc23)CC1
3. COCC(=O)N[C@H]1CC[C@H](NC(=O)c2c[nH]c3c(-c4cc(F)ccc4OCC4CC4)ncnc23)CC1

1: 9.04; 2: 9.31; 3: 8.89

* * *

Can you tell me pIC50 for the items I'm about to list?
Target: human PDE5 (Homo sapiens, UniProt O76074)
Test: Inhibition of the type 5 phosphodiesterase (PDE5) activity, modified SPA test with platelet lysate
Settings: PDE5 from human platelet lysate, 0.5 μM cGMP
Give bare numbers, as −log10 of the molar value.

Example compounds with recorded pIC50:
CC(=O)N1CCC(NC(=O)c2c[nH]c3c(-c4cc(F)ccc4OCC4CC4)ncnc23)CC1; 8.53
COCC(=O)N[C@H]1CC[C@@H](NC(=O)c2c[nH]c3c(-c4cc(OC)ccc4OCC4CC4)ncnc23)CC1; 8.75
COc1cc(-c2ncnc3c(C(=O)NC4CCN(C(C)=O)CC4)c[nH]c23)c(OCC2CC2)cc1F; 9.75

For the 2 compounds below, give their pIC50 values.
1. COc1ccc(-c2ncnc3c(C(=O)N[C@H]4CC[C@H](NC(=O)CO)CC4)c[nH]c23)c(OCC2CC2)c1
2. O=C(N[C@@H]1CCN(C(=O)C2CC2)C1)c1c[nH]c2c(-c3c(OCC4CC4)ccc4c3OCO4)ncnc12

1. 9.23
2. 9.41

Batch request: pIC50 per item, same order as input.
1. CC(=O)c1ccc(OCC2CC2)c(-c2ncnc3c(C(=O)NC4CCN(C(C)=O)CC4)c[nH]c23)c1
2. O=CN1CCC(CNC(=O)c2c[nH]c3c(-c4c(OCC5CC5)ccc5c4OCO5)ncnc23)C1 (stereo not drawn)

[10.10, 8.96]

For every listed record, write down its pIC50.
1. CC(=O)N1CCC[C@@H](NC(=O)c2c[nH]c3c(-c4c(OCC5CC5)ccc5c4OCO5)ncnc23)C1
2. C[C@H](O)C(=O)N[C@H]1CC[C@H](NC(=O)c2c[nH]c3c(-c4ccccc4OCC4CC4)ncnc23)CC1
3. COc1ccc(OCC2CC2)c(-c2ncnc3c(C(=O)N[C@H]4CC[C@H](NC(=O)C5CC5)CC4)c[nH]c23)c1
4. COCC(=O)N[C@H]1CC[C@H](NC(=O)c2c[nH]c3c(-c4ccc(OC)cc4OCC4CC4)ncnc23)CC1
5. COCC(=O)N1CCC(NC(=O)c2c[nH]c3c(-c4cc(OC)c(F)cc4OCC4CC4)ncnc23)CC1

9.47
8.15
9.22
9.43
9.66

* * *

Would you kindly list IC50 for each of these compounds?
Target: human PDE5 (Homo sapiens, UniProt O76074)
Test: Inhibition of the type 5 phosphodiesterase (PDE5) activity, modified SPA test with platelet lysate
Conditions: PDE5 from human platelet lysate, 0.5 μM cGMP
Procedure: Method for Measuring Inhibition of the Type 5 Phosphodiesterase (PDE5) Activity: As a source for human PDE5, platelets are used. For that purpose, 150 ml fresh blood from human donors anticoagulated with citrate [final concentration 0.3% (w/v)] is centrifuged at 200 g for 10 min to obtain the so-called platelet-rich-plasma (PRP) as a supernatant. 1/10 volume of ACD solution (85 mM Na3-citrate, 111 mM D-glucose, 71 mM citric acid, pH 4.4) is added to 9/10 volume of PRP. […]
Answers are plain numbers, in nM.

CCC(=O)N1CCC(NC(=O)c2c[nH]c3c(-c4cc(F)ccc4OCC4CC4)ncnc23)CC1 [Example 85]; 1.58

Lab note: each compound below needs its IC50 filled in.
1. O=C(NC1CCN(C(=O)CO)CC1)c1c[nH]c2c(-c3cc(F)c(O)cc3OCC3CC3)ncnc12 [Example 281]
2. O=C(N[C@H]1CC[C@H](C(=O)NC2CC2)CC1)c1c[nH]c2c(-c3c(OCC4CC4)ccc4c3OCO4)ncnc12 [Example 270]
3. CC(=O)N1CCC(NC(=O)c2c[nH]c3c(-c4ccc(F)cc4OCC4CC4)ncnc23)CC1 [Example 81]
4. COCC(=O)N1CCC[C@H](NC(=O)c2c[nH]c3c(-c4c(OCC5CC5)ccc5c4OCO5)ncnc23)C1 [Example 45]
5. COCC(=O)N1CCC(NC(=O)c2c[nH]c3c(-c4cc(F)c(OC(F)F)cc4OCC4CC4)ncnc23)CC1 [Example 280]
6. COCC(=O)N1CC[C@@H](NC(=O)c2c[nH]c3c(-c4c(OCC5CC5)ccc5c4OCO5)ncnc23)C1 [Example 13]

[851, 0.191, 1.48, 1.55, 1.74, 0.776]

For each of the compounds below, note its IC50.
1. CCOC(=O)N[C@H]1CC[C@@H](NC(=O)c2c[nH]c3c(-c4c(OCCOC)ccc5c4OCO5)ncnc23)CC1 [Example 167]
2. COCC(=O)N1CCC(NC(=O)c2c[nH]c3c(-c4c(OCC5CC5)ccc5c4OCO5)ncnc23)CC1 [Example 3]
3. COc1cc(-c2ncnc3c(C(=O)N[C@@H]4CCCN(C(=O)[C@H](C)O)C4)c[nH]c23)c(OCC2CC2)cc1F [Example 230]
4. COc1ccc(-c2ncnc3c(C(=O)N[C@H]4CC[C@@H](NC(=O)[C@H](C)O)CC4)c[nH]c23)c(OCC2CC2)c1 [Example 203]
5. COCC(=O)N[C@H]1CC[C@H](NC(=O)c2c[nH]c3c(-c4ccc(F)cc4OCC4CC4)ncnc23)CC1 [Example 79]
6. COCCOc1cc(OC)ccc1-c1ncnc2c(C(=O)N[C@H]3CC[C@@H](NC(=O)C4CC4)CC3)c[nH]c12 [Example 153]

5.25
0.398
0.24
0.389
1.55
6.17
